# targetEntity: T1, cynomolgus monkey DLL4 extracellular domain (cynomolgus monkey)
# T1 construct: extracellular domain; also called cynoDLL4 ECD; Cyno DLL4
# testDescription: SPR (Biacore)
# Description: The BIACORE® surface plasmon resonance assay (Biacore, Inc., Piscataway, N.J., US) determines the affinity of antibodies with kinetic measurements of on-rate and off-rate constants. […] The equilibrium dissociation constant KD (M) of the reaction between antibodies and the target antigen was then calculated from the kinetic rate constants by the following formula: KD=Koff/Kₒₙ. Binding was recorded as a function of time and kinetic rate constants were calculated.
Quick list: kon per entry.
Hi! Could you send only the number? It should be in M⁻¹ s⁻¹, unit omitted.

Solved cases (3 shown):
| binder | measurementUnits | kon |
| --- | --- | --- |
| h1A11.A12 (antibody, V domains shown, also called h1A11VH.1 / h1A11.A12 VL) VH: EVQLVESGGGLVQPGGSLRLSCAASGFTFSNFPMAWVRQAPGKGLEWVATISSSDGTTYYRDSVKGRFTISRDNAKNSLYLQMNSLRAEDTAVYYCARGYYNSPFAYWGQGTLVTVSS VL: DIQMTQSPSSLSASVGDRVTITCRASQDIYYNLAWYQQKPGKSPKLLIFDTSSLADGVPSRFSGSGSGTDFTLTISSLQPEDFATYFCQQYDWYPPTFGQGTKLEIK | M⁻¹ s⁻¹ | 158000 |
| h1A11.F5 (antibody, V domains shown, also called h1A11.F5 VH / h1A11.E12 VL) VH: EVQLVESGGGLVQPGGSLRLSCAASGFTFRHFPMAWVRQAPGKGLEWVATISSSDAWPSYRDSVKGRFTISRDNAKNSLYLQMNSLRAEDTAVYYCARGYYNSPFAYWGQGTLVTVSS VL: DIQMTQSPSSLSASVGDRVTITCRASQEIYRNLAWYQQKPGKSPKLLIFDTSVLADGVPSRFSGSGSGTDSTLTISSLQPEDFATYYCQQYTYYPPTFGQGTKLEIK | M⁻¹ s⁻¹ | 118000 |
| h1A11.H2 (antibody, V domains shown, also called h1A11.H2 VH / h1A11.E12 VL) VH: EVQLVESGGGLVQPGGSLRLSCAASGFTFGNFPMSWVRQAPGKGLEWVASISSSDSWATIGDSVKGRFTISRDNAKNSLYLQMNSLRAEDTAVYYCARGYYNSPFAFWGQGTLVTVSS VL: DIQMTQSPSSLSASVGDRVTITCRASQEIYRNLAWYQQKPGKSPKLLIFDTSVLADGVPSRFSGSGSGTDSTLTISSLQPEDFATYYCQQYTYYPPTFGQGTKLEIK | M⁻¹ s⁻¹ | 131000 |

Query :: If you can, please state the reported kon value of h1A11.B5 (antibody, V domains shown, also called h1A11.B5 VH / h1A11.B5 VL) VH: EVQLVESGGGLVQPGGSLRLSCAASGFTFRYFPMSWVRQAPGKGLEWVASISGSDGWASYRDSVKGRFTISRDNAKNSLYLQMNSLRAEDTAVYYCARGYYNSPFASWGQGTLVTVSS VL: DIQMTQSPSSLSASVGDRVTITCRASQDIWNNLAWYQQKPGKSPKLLIFDTSYLADGVPSRFSGSGSGTDFTLTISSLQPEDFATYYCQQYDWYPPTFGQGTKLEIK .
Result :: 117000

Query :: Again, but for h1A11.A8 (antibody, V domains shown, also called h1A11.A8 VH / h1A11VL.1) VH: EVQLVESGGGLVQPGGSLRLSCAASGFTFGNFPMSWVRQAPGKGLEWVASISSSDSWATIGDSVKGRFTISRDNAKNSLYLQMNSLRAEDTAVYYCSRGYYNSPFAYWGQGTLVTVSS VL: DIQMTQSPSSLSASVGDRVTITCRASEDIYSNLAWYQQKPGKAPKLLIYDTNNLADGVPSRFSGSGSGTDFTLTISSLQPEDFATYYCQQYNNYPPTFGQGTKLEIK
Result :: 160000

Query :: Again, but for h1A11.G3 (antibody, V domains shown, also called h1A11.G3 VH / h1A11.E12 VL) VH: EVQLVESGGGLVQPGGSLRLSCAASGFTFRYFPMSWVRQAPGKGLEWVASISGSDGWASYRDSVKGRFTISRDNAKNSLYLQMNSLRAEDTAVYYCARGYYNSPFAYWGQGTLVTVSS VL: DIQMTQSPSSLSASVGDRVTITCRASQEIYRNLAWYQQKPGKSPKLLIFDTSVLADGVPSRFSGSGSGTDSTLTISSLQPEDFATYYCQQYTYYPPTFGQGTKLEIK
Result :: 99000
